Test system: EGFR/BTK
experiment.description: BTK inhibition selectivity compared with EGFR kinase inhibitory activity (in vitro)
Format: biochemical, human
study.conditions: ratio of IC50 values
quantity.name: EGFR inhibitory activity IC50 value (nM)/BTK inhibitory activity IC50 value (nM)

| molecule | tgt | value.measured |
| --- | --- | --- |
| CN(C)C/C=C/C(=O)N1CCC[C@@H](n2nc(C(=O)Nc3nc4cc(-c5cccs5)ccc4o3)c3c(N)ncnc32)C1 [Example 21] | EGFR/BTK | 147.4 |
| C=C(C)C(=O)N1CCC[C@@H](n2nc(C(=O)Nc3nc4cc(F)ccc4o3)c3c(N)ncnc32)C1 [Example 11] | EGFR/BTK | 1294.6 |
| C/C=C/C(=O)N1CCC[C@@H](n2nc(C(=O)Nc3nc4ccccc4o3)c3c(N)ncnc32)C1 [Example 14] | EGFR/BTK | 128.1 |
| CN(C)C/C=C/C(=O)N1CC(n2cc(C(=O)Nc3nc4cc(Cl)ccc4o3)c3c(N)ncnc32)C1 [Example 47] | EGFR/BTK | 20.4 |
| C=CC(=O)N1CCC[C@@H](n2nc(C(=O)Nc3nc4cc(CCOC)ccc4o3)c3c(N)ncnc32)C1 [Example 8] | EGFR/BTK | 22.9 |
